Biological target: IRAK4 (Homo sapiens (Human), UniProt Q9NWZ3)
Sequence (Q9NWZ3 whole entry, species assumed): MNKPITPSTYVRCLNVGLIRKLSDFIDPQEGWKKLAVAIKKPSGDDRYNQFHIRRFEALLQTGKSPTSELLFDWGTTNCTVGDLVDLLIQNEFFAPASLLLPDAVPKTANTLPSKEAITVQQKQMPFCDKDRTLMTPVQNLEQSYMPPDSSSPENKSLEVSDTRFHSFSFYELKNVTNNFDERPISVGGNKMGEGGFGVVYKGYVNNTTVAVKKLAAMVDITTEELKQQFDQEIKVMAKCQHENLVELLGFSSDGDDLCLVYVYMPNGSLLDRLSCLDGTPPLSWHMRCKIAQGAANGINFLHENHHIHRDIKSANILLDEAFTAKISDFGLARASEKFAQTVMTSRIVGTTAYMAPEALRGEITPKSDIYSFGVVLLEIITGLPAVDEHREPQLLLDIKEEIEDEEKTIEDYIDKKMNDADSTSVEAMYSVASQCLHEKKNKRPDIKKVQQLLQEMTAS
Experiment: IRAK4 Biochemical HTRF Kinase Assay
Conditions: Table 5; multiple runs; read-out: IRAK4 HTRF biochemical: IC50
Experimental: IRAK4 Biochemical HTRF Kinase Assay The binding capacities of certain bifunctional compounds of Formula (I) were determined using the CisBio HTRF KinEASE STK S1 Kit (#62ST1PEB, contains 5× Kinase buffer, 1× Detection Buffer, anti-phospho-serine/threonine-cryptate, Streptavidin-XL665, and STK-S1), which measures the phosphorylation of a biotinylated peptide substrate by IRAK4, according to the manufacturer's protocol. […]
Collected pIC50 values appear next to each entry.
Entry type: numeric. Quantity: pIC50, the -log10 of concentration in molar units.

Worked set:
compound="CNc1cc(-c2ccc3cc(C#N)cnn23)ncc1-c1nnc([C@H]2CC[C@@H](NC(=O)CCCCCNc3cccc4c3C(=O)N(C3CCC(=O)NC3=O)C4=O)CC2)s1 (some centres unmarked) [Example 120]" target_or_test_system="IRAK4 (Homo sapiens (Human), UniProt Q9NWZ3)" reported_measurement=8.96
compound="CNc1cc(-c2ccc3cc(C#N)cnn23)ncc1-c1nnc([C@H]2CC[C@H](NC(=O)CN3CCN(c4ccc5c(c4)C(=O)N(C4CCC(=O)N(C)C4=O)C5=O)CC3)CC2)s1 (some centres unmarked) [Example 148]" target_or_test_system="IRAK4 (Homo sapiens (Human), UniProt Q9NWZ3)" reported_measurement=8.85
compound="CNc1cc(-c2ccc3cc(C#N)cnn23)ncc1-c1nnc([C@H]2CC[C@H](NC(=O)CN3CCC4(CC3)CN(c3ccc5c(c3)C(=O)N(C3CCC(=O)NC3=O)C5=O)C4)CC2)s1 (some centres unmarked) [Example 64]" target_or_test_system="IRAK4 (Homo sapiens (Human), UniProt Q9NWZ3)" reported_measurement=9.10
compound="CNc1cc(-c2ccc3cc(C#N)cnn23)ncc1-c1nnc(C23CCC(NC(=O)CC(C)(C)C(=O)N[C@H](C(=O)N4C[C@H](O)C[C@H]4C(=O)N[C@@H](C)c4ccc(-c5scnc5C)cc4)C(C)(C)C)(CC2)CC3)s1 [Example 155]" target_or_test_system="IRAK4 (Homo sapiens (Human), UniProt Q9NWZ3)" reported_measurement=8.62

Task: Reported pIC50, compound CNc1cc(-c2ccc3cc(C#N)cnn23)ncc1-c1nnc([C@H]2CC[C@H](NC(=O)C[C@H](NC(=O)[C@@H]3C[C@@H](O)CN3C(=O)[C@@H](NC(=O)C3(F)CC3)C(C)(C)C)c3ccc(-c4scnc4C)cc3)CC2)s1 [Example 118] : ____
Output: 8.85

---

Collected IC50 values appear next to each entry.
Biological target: IRAK4 (Homo sapiens (Human), UniProt Q9NWZ3)
Test: IRAK4 Biochemical HTRF Kinase Assay
Settings: Table 5; multiple runs; read-out: IRAK4 HTRF biochemical: IC50
Field format: number, assumed nM, no unit text.

molecule="CNc1cc(-c2ccc3cc(C#N)cnn23)ncc1-c1nnc([C@H]2CC[C@H](NC(=O)C3CN(C4CCN(c5ccc6c(c5)C(=O)N(C5CCC(=O)NC5=O)C6=O)CC4)C3)CC2)s1 (stereo partly shown)" target_or_test_system="IRAK4 (Homo sapiens (Human), UniProt Q9NWZ3)" metric=IC50 reported_measurement=0.8

Task: # get_value(readout= IC50, system= IRAK4 (Homo sapiens (Human), UniProt Q9NWZ3)) for CNc1cc(-c2ccc3cc(C#N)cnn23)ncc1-c1nnc(C23CCC(NC(=O)[C@H]4C[C@H]4C(=O)N[C@H](C(=O)N4C[C@H](O)C[C@H]4C(=O)N[C@@H](C)c4ccc(-c5scnc5C)cc4)C(C)(C)C)(CC2)CC3)s1 (mixture of isomers)
Output: 1.9

Task: # get_value(readout= IC50, system= IRAK4 (Homo sapiens (Human), UniProt Q9NWZ3)) for CC(C)Nc1cc(-c2ccc3cc(C#N)cnn23)ncc1-c1nnc(N2CCN(C(=O)CCOCCOCCOCCNc3cccc4c3C(=O)N(C3CCC(=O)NC3=O)C4=O)CC2)s1 (stereo not shown)
Output: 1.3

Task: # get_value(readout= IC50, system= IRAK4 (Homo sapiens (Human), UniProt Q9NWZ3)) for Cc1ncsc1-c1ccc(CNC(=O)[C@@H]2C[C@@H](O)CN2C(=O)[C@@H](NC(=O)C2(F)CC2)C(C)(C)C)c(OCCCCCCCCCC(=O)N2CCN(c3nnc(-c4cnc(-c5ccc6cc(C#N)cnn56)cc4NC(C)C)s3)CC2)c1
Output: 702

Task: # get_value(readout= IC50, system= IRAK4 (Homo sapiens (Human), UniProt Q9NWZ3)) for CNc1cc(-c2ccc3cc(C#N)cnn23)ncc1-c1nnc(N2CCN(C(=O)C3CCN(c4cccc5c4C(=O)N(C4CCC(=O)NC4=O)C5=O)CC3)CC2)s1 (stereo not shown)
Output: 0.9

Task: # get_value(readout= IC50, system= IRAK4 (Homo sapiens (Human), UniProt Q9NWZ3)) for CC(C)Nc1cc(-c2ccc3cc(C#N)cnn23)ncc1-c1nnc(N2CCN(C(=O)CN3CCC4(CC3)CN(c3ccc5c(c3)C(=O)N(C3CCC(=O)NC3=O)C5=O)C4)CC2)s1 (stereo not shown)
Output: 1

Task: # get_value(readout= IC50, system= IRAK4 (Homo sapiens (Human), UniProt Q9NWZ3)) for CC(C)Nc1cc(-c2ccc3cc(C#N)cnn23)ncc1-c1nnc(N2CCN(C3CCN(C(=O)Cc4ccc5c(c4)CN(C4CCC(=O)NC4=O)C5=O)CC3)CC2)s1 (stereo not shown)
Output: 0.8

Task: # get_value(readout= IC50, system= IRAK4 (Homo sapiens (Human), UniProt Q9NWZ3)) for CNc1cc(-c2ccc3cc(C#N)cnn23)ncc1-c1nnc(N2CC3(CCN(C[C@@H]4CCN(c5ccc6c(c5)C(=O)N(C5CCC(=O)NC5=O)C6=O)C4)CC3)C2)s1 (stereo partly shown)
Output: 0.6

Task: # get_value(readout= IC50, system= IRAK4 (Homo sapiens (Human), UniProt Q9NWZ3)) for Cc1ncsc1-c1ccc([C@H](C)NC(=O)[C@@H]2C[C@@H](O)CN2C(=O)[C@@H](NC(=O)CCCCCC(=O)N2CCN(c3nnc(-c4cnc(-c5ccc6cc(C#N)cnn56)cc4NC(C)C)s3)CC2)C(C)(C)C)cc1
Output: 6

Task: # get_value(readout= IC50, system= IRAK4 (Homo sapiens (Human), UniProt Q9NWZ3)) for CNc1cc(-c2ccc3cc(C#N)cnn23)ncc1-c1nnc(N2CC3CCC(C2)N3C2CCN(C(=O)Cc3ccc4c(c3)CN(C3CCC(=O)NC3=O)C4=O)CC2)s1 (stereo not shown)
Output: 0.4

Task: # get_value(readout= IC50, system= IRAK4 (Homo sapiens (Human), UniProt Q9NWZ3)) for CNc1cc(-c2ccc3cc(C#N)cnn23)ncc1-c1nnc(N2CCN(C(=O)CN3CCN(c4ccc5c(c4)C(=O)N(C4CCC(=O)NC4=O)C5=O)CC3)CC2)s1 (stereo not shown)
Output: 0.6

Task: # get_value(readout= IC50, system= IRAK4 (Homo sapiens (Human), UniProt Q9NWZ3)) for CNc1cc(-c2ccc3cc(C#N)cnn23)ncc1-c1nnc(N2CCC(NC(=O)CN3CCN(c4ccc5c(c4)C(=O)N(C4CCC(=O)NC4=O)C5=O)CC3)CC2)s1 (stereo not shown)
Output: 0.8

Task: # get_value(readout= IC50, system= IRAK4 (Homo sapiens (Human), UniProt Q9NWZ3)) for CNc1cc(-c2ccc3cc(C#N)cnn23)ncc1-c1nnc([C@H]2CC[C@H](NC(=O)CCC(=O)N[C@H](C(=O)N3C[C@H](O)C[C@H]3C(=O)N[C@@H](C)c3ccc(Br)cc3)C(C)(C)C)CC2)s1
Output: 1.5

---

Molecular target: UniProtKB Q9NWZ3
Assay: IRAK4 Biochemical HTRF Kinase Assay
Conditions: Table 5; multiple runs; read-out: IRAK4 HTRF biochemical: IC50
metric: IC50 (nM)
Field format: number, assumed nM, no unit text.

molecule="CNc1cc(-c2ccc3cc(C#N)cnn23)ncc1-c1nnc([C@H]2CC[C@H](NC(=O)CCOCCC(=O)N[C@H](C(=O)N3C[C@H](O)C[C@H]3C(=O)N[C@@H](C)c3ccc(-c4scnc4C)cc3)C(C)(C)C)CC2)s1 [Example 61]" reported_measurement=4

Task: Reported IC50, molecule CNc1cc(-c2ccc3cc(C#N)cnn23)ncc1-c1nnc([C@H]2CC[C@@H](NC(=O)CCCCCCCNc3ccc4c(c3)C(=O)N(C3CCC(=O)NC3=O)C4=O)CC2)s1 (some centres unmarked) [Example 112] : ____
Output: 10.2

Task: Reported IC50, molecule CNc1cc(-c2ccc3cc(C#N)cnn23)ncc1-c1nnc([C@H]2C[C@H](NC(=O)CN3CCN(c4ccc5c(c4)C(=O)N(C4CCC(=O)NC4=O)C5=O)CC3)C2)s1 (some centres unmarked) [Example 190] : ____
Output: 1

Task: Reported IC50, molecule CNc1cc(-c2ccc3cc(C#N)cnn23)ncc1-c1nnc([C@H]2C[C@H](NC(=O)C[C@H](NC(=O)[C@@H]3C[C@@H](O)CN3C(=O)[C@@H](NC(=O)C3(F)CC3)C(C)(C)C)c3ccc(-c4scnc4C)cc3)C2)s1 [Example 183] : ____
Output: 2.3

Task: Reported IC50, molecule CC(C)Nc1cc(-c2ccc3cc(C#N)cnn23)ncc1-c1nnc(N2CCN(C(=O)C3CCN(CC4CCN(c5ccc(-c6nn(C7CCC(=O)NC7=O)c(=O)n6C)cc5)CC4)CC3)CC2)s1 (centres unmarked) [Example 24] : ____
Output: 0.6
